Value source: patent US11377444B2

test-description: Pharmacokinetic evaluation in plasma after IV and PO administration
Format: in vivo
condition-description: mouse, female Balb/c mice, IV 1 mg/kg
Assignment: determine reported AUC(0-t) for the given compounds.
Please answer using a numeric value trailed by its unit.

Need AUC(0-t), item C[C@H]1COC2(CCC2)CN1c1nc(N2CCOC[C@@H]2C)c2ccc(-c3cccc(C(N)=O)c3)nc2n1
7.38 µM·h

Need AUC(0-t), item CNC(=O)c1cccc(-c2ccc3c(N4CCOC[C@@H]4C)nc(N4CCOC[C@@H]4C)nc3n2)c1 [AZD2014, reference compound]
4.27 µM·h

Need AUC(0-t), item CNC(=O)c1cc(-c2ccc3c(N4CCOC[C@@H]4C)nc(N4CCOC5(CC5)C4)nc3n2)ccc1OC
9.46 µM·h
